System: IGROV-ET
Assay: SRB colorimetric assay of cell growth and viability, IGROV-ET
Type: cell-based, human
Conditions: 48 hours exposure; read-out: LC50 IGROV-ET
Protocol: The finality of this assay is to interrupt the growth of a “in vitro” tumor cell culture by means a continued exhibition of the cells to the sample to be testing. […] Cells are seeded in 96 well microtiter plates, at 5×10^3 cells per well in aliquots of 195 μL medium, and they are allowed to attach to the plate surface by growing in drug free medium for 18 hours. […] Optical densities are read on a automated spectrophotometric plate reader at a single wavelength of 490 nm. […]
Where a SMILES comes first, the peptide text is derived from it. Bridges are numbered along the chain shown (N, C = ends). [ ]: non-standard residue; d: D form. The star is where a group is joined. d(aIle) = CC[C@H](C)[C@@H](N)C(=O)O; d(aThr) = C[C@@H](O)[C@@H](N)C(=O)O; Hexanoyl(5-Me) = CC(C)CCCC(=O)*; dCha = N[C@H](CC1CCCCC1)C(=O)O; Orn = NCCC[C@H](N)C(=O)O; Dhb = C/C=C(\N)C(=O)O
Consider the following compounds; for each one, report its CC50.

Previously resolved entries follow.
[[record]]
compound = "C/C=C1\\NC(=O)[C@H](Cc2ccccc2)NC(=O)[C@@H](C(C)C)NC(=O)[C@@H]([C@@H](C)CC)NC(=O)[C@H](NC(=O)[C@H](NC(=O)[C@H](CCCN)NC(=O)[C@H]2CCCN2C(=O)[C@H](NC(=O)[C@@H](NC(=O)[C@H](CC(C)C)NC(=O)CCCC(C)C)C(C)C)C(C)C)[C@@H](C)CC)[C@@H](C)OC(=O)[C@H](C(C)C)NC1=O [Compound 54, [Leu^12, noD-Val^13]-KF] ({Hexanoyl(5-Me)}-LV[dV][dP][Orn][d(aIle)][d(aThr)][d(aIle)][dV]F[Dhb]V; ester 7-C)"
experimental_value = "4.57 µM"

[[record]]
compound = "C/C=C1\\NC(=O)[C@H](Cc2ccccc2)NC(=O)[C@@H](C(C)C)NC(=O)[C@@H]([C@@H](C)CC)NC(=O)[C@H](NC(=O)[C@H](NC(=O)[C@H](CCCN)NC(=O)[C@H]2CCCN2C(=O)[C@H](NC(=O)[C@@H](NC(=O)[C@@H](NC(=O)[C@H](NC(=O)CCCC(C)C)C(C)C)[C@@H](C)O)C(C)C)C(C)C)[C@@H](C)CC)[C@H](C)OC(=O)[C@H](C(C)C)NC1=O [Compound 2, [D-Thr^6]-KF]"
experimental_value = "≥ 6.77 µM"

[[record]]
compound = "C/C=C1\\NC(=O)[C@H](Cc2ccccc2)NC(=O)[C@@H](C(C)C)NC(=O)[C@@H]([C@@H](C)CC)NC(=O)[C@H](NC(=O)[C@H](NC(=O)[C@H](CCCN)NC(=O)[C@H]2CCCN2C(=O)[C@H](NC(=O)[C@@H](NC(=O)[C@@H](NC(=O)[C@H](NC(=O)CCCC(C)C)C(C)C)[C@@H](C)O)[C@@H](C)O)C(C)C)[C@@H](C)CC)[C@@H](C)OC(=O)[C@H](C(C)C)NC1=O [Compound 50, [Thr^11]-KF] ({Hexanoyl(5-Me)}-[dV]TT[dV][dP][Orn][d(aIle)][d(aThr)][d(aIle)][dV]F[Dhb]V; ester 8-C)"
experimental_value = "≥ 6.76 µM"

[[record]]
compound = "C/C=C1\\NC(=O)[C@H](Cc2ccccc2)NC(=O)[C@@H](C(C)C)NC(=O)[C@@H]([C@@H](C)CC)NC(=O)[C@H](NC(=O)[C@H](NC(=O)[C@H](CCCN)NC(=O)[C@H]2CCCN2C(=O)[C@H](NC(=O)[C@@H](NC(=O)[C@H](CCCN)NC(=O)CCCC(C)C)C(C)C)C(C)C)[C@@H](C)CC)[C@@H](C)OC(=O)[C@H](C(C)C)NC1=O [Compound 57, [Orn^12, noD-Val^13]-KF] ({Hexanoyl(5-Me)}-[Orn]V[dV][dP][Orn][d(aIle)][d(aThr)][d(aIle)][dV]F[Dhb]V; ester 7-C)"
experimental_value = "≥ 7.18 µM"

[[record]]
compound = "C/C=C1\\NC(=O)[C@H](Cc2ccccc2)NC(=O)[C@@H](C(C)C)NC(=O)[C@@H]([C@@H](C)CC)NC(=O)[C@H](NC(=O)[C@H](NC(=O)[C@H](CCCN)NC(=O)[C@H]2CCCN2C(=O)[C@H](NC(=O)[C@@H](NC(=O)[C@@H](NC(=O)[C@H]2CCCN2C(=O)CCCC(C)C)[C@@H](C)O)C(C)C)C(C)C)[C@@H](C)CC)[C@@H](C)OC(=O)[C@H](C(C)C)NC1=O [Compound 37, [D-Pro^13]-KF]"
experimental_value = "4.15 µM"


Read the next record carefully.
Returns the measured CC50 for the input compound. Input: C/C=C1\NC(=O)[C@H](Cc2ccccc2)NC(=O)[C@@H](CC2CCCCC2)NC(=O)[C@@H](CC2CCCCC2)NC(=O)[C@H](NC(=O)[C@@H](CC2CCCCC2)NC(=O)[C@H](CCCN)NC(=O)[C@H]2CCCN2C(=O)[C@H](NC(=O)[C@@H](NC(=O)[C@@H](NC(=O)[C@H](NC(=O)CCCC(C)C)C(C)C)[C@@H](C)O)C(C)C)C(C)C)[C@@H](C)OC(=O)[C@H](C(C)C)NC1=O [Compound 11, [D-Cha^4, D-Cha^5, D-Cha^7]-KF] ({Hexanoyl(5-Me)}-[dV]TV[dV][dP][Orn][dCha][d(aThr)][dCha][dCha]F[Dhb]V; ester 8-C)
1.29 µM
